From: the supplement of paper PMC10724198

Tested on: Saccharomyces cerevisiae
Experiment: protein stability index of tFT-peptide fusion (C-terminal peptide) (PSI (0-1 scale)); higher = more stable (slower turnover)
Settings: genetic background: cdc53-1; temperature: 37 C
Measurement Name: protein stability index
One number for each entry.

Example entries and their recorded answers appear below.
FFVISVVLCLLV :: 0.48
VFKLGWVLCVLL :: 0.386
FLCLFFLAVIKL :: 0.188
LGFSHTRAIFFV :: 0.731
KKKNIYKVMKLE :: 0.706

In the following, a different sequence is considered.
Which measured protein stability index value corresponds to "GLCLFLIGVFSV" ?
0.313

###

Test system: Saccharomyces cerevisiae
Test: protein stability index of tFT-peptide fusion in wild type (PSI (0-1 scale)); higher = more stable (slower turnover)
Conditions: genetic background: wild type
Values of protein stability index greater than or equal to 0.2 map to met; values below map to not met.

PDKRNHLIILLN :: not met
PSLAALFWRVVG :: not met
LVVYLNCVACIN :: not met
VRGAVMGWRLVG :: not met
SRGAVGGWRLVG :: not met

Has "RSLAVLLPLYFR" a recorded protein stability index greater than or equal to 0.2?
met

Record: "EVVYLSCVACIN"
not met

Proceed to "RSLRVLLPLTFR"
met

Further, for "FSMRWLFRYWVN" ?
not met

Repeat with "CTSCGYKFRTRN"
met

Entry to check: "WTSCGYKFRTNN"
not met

Ok, now "RSLRVALPLYFR"
not met

Then this sequence: "FSMRWTFRYWRN"
met

Again, but for "RSLRVLLPLYIR"
met

Ok, now "VRGAVGGWRHVG"
not met

How about this sequence: "VRGAVGGWRCVG"
met

Lookup "RLIQPLPVQFLNM"
met

"PSLAHSFWRVVG" ?
not met

Quick one: "RCTRLDAIYFRI"
met

Follow-up entry: "KKHKKGQKQMIN"
not met

Try this sequence next: "VRGAVGGMRLVG"
met

Proceed to "RSLRVLLTLYFR"
met

And what about the sequence "GLYMCSVLCWFR" ?
met
